Target: T1, extracellular domain of human BCMA (human, UniProt Q02223 1-54)
T1 construct: amine-linked to Octet AR2G tips; also called hsBCMA; BCMA (human)
T1 sequence: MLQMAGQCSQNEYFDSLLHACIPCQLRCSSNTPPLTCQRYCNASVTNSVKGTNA
Assay: Octet BLI; Fab 200 nM
pKd: −log10 of the molar value.

# binder, pKd
data = [
    ("AB200-(2Vk31)_R2-VH-v47 (Fab, V domains shown) VH: QVQLVQSGAEVKKPGSSVKVSCKASGGTYSNYWIHWVRQAPGQGLEWMGATYRIHSTTYYNEKFKSRVTITADKSTSTAYMELSSLRSEDTAVYYCARGAIFHGYDVIDNWGQGTLVTVSS VL: DIQMTQSPSSLSASVGDRVTITCRASQSISSYLNWYQQKPGKAPKLLIYATSNLQIGVPSRFSGSGSGTDFTLTISSLQPEDFATYYCQQFRRLPWTFGQGTKLEIKR", 7.75),
    ("AB200-(2Vk31)_R2-VH-v25 (Fab, V domains shown) VH: QVQLVQSGAEVKKPGSSVKVSCKASGGTFSNYWIHWVRQAPGQGLEWMGATYRSHSTTNYNQKFKSRVTITADKSTSTAYMELSSLRSEDTAVYYCARGAIYHGFDVIDNWGQGTLVTVSS VL: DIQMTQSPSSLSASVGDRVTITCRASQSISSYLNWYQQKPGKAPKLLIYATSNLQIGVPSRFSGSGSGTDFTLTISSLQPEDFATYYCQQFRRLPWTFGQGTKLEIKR", 7.48),
    ("AB200-(2Vk31)_R2-VH-v50 (Fab, V domains shown) VH: QVQLVQSGAEVKKPGSSVKVSCKASGGTYSNYWIHWVRQAPGQGLEWMGGTYRIHSDTNYNQKFKSRVTITADKSTSTAYMELSSLRSEDTAVYYCARGAIYHGYDVIENWGQGTLVTVSS VL: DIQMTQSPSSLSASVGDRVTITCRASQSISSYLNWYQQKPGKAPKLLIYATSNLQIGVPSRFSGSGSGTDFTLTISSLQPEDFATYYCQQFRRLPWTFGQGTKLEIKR", 7.05),
    ("AB200-(2Vk31)_R2-VH-v3 (Fab, V domains shown, also called AB200_VH2-03_VK2-31) VH: QVQLVQSGAEVKKPGSSVKVSCKASGGTFTNYWIHWVRQAPGQGLEWMGGTYRSHSTTYYNQKFKSRVTITADKSTSTAYMELSSLRSEDTAVYYCARGAVYHGYDVIDNWGQGTLVTVSS VL: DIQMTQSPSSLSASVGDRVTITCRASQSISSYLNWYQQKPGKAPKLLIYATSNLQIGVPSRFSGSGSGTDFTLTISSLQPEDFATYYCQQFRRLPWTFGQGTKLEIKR", 8.59),
    ("AB200-(2Vk31)_R2-VH-v5 (Fab, V domains shown) VH: QVQLVQSGAEVKKPGSSVKVSCKASGGTFTNYWIHWVRQAPGQGLEWMGGTYRSHSDTYYNEKFKSRVTITADKSTSTAYMELSSLRSEDTAVYYCARGAIFHGYDVIDNWGQGTLVTVSS VL: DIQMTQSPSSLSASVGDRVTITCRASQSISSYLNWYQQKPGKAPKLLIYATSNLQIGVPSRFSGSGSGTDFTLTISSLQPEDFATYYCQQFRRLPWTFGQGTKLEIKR", 8.44),
    ("AB200-(2Vk31)_R2-VH-v20 (Fab, V domains shown, also called AB200_VH2-20_VK2-31) VH: QVQLVQSGAEVKKPGSSVKVSCKASGGTFSNYWIHWVRQAPGQGLEWMGGTYRSHSDTNYNQKFKSRVTITADKSTSTAYMELSSLRSEDTAVYYCARGAIYHGYDVIENWGQGTLVTVSS VL: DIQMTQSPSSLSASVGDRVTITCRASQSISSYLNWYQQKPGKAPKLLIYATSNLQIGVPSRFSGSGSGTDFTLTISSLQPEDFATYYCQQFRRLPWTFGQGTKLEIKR", 7.38),
]
